system: CHO; test: Selectivity index, ratio of Ki for human CB1 receptor expressed in CHO cell membranes to Ki for human CB2 receptor expressed in CHO cell membranes; assay type: cell-based
In this section, each of the compounds is paired with its reported Selectivity Index.
Enter the number alone.

Here is how some compounds turned out for Selectivity Index.
COc1c(C)cc(-c2ccccc2)cc1C(=O)NC1CCCCCC1 : 4.5
COc1c(Cc2ccccc2)cc(-c2ccccc2)cc1C(=O)NC1CCCCCC1 : 2.6
COc1c(Cc2ccc(F)cc2)cc(-c2ccccc2)cc1C(=O)N[C@H]1CC[C@H](C)CC1 : 1.2
CCCCc1cc(-c2ccccc2)cc(C(=O)NC2CCCCCC2)c1OC : 5.3
COc1c(Cc2ccc(F)cc2)cc(-c2ccccc2)cc1C(=O)NC1CCCCCC1 : 10.7

Now consider a different compound.
For the compound shown here, COc1ccc(-c2cc(Cc3ccc(F)cc3)c(OC)c(C(=O)N[C@H]3CC[C@@H](C)CC3)c2)cc1 , give the reported Selectivity Index. 2

---

biological target: Cannabinoid receptor 1 (Homo sapiens, UniProt P21554)
Sequence (P21554 whole entry): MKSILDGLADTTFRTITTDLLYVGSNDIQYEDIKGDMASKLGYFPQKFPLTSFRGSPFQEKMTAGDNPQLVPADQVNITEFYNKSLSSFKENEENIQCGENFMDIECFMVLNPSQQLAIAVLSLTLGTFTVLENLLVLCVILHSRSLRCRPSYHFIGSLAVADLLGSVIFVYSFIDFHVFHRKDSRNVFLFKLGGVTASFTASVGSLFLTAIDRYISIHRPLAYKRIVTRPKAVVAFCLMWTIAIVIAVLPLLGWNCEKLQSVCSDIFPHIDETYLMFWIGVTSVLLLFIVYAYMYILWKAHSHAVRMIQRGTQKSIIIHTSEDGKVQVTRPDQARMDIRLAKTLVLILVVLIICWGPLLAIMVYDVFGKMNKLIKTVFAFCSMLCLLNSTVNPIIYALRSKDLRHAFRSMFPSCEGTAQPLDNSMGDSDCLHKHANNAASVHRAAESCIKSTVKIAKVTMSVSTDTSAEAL
pKi: −log10 of the molar value.
TRUE means recorded pKi is 6 or above; FALSE means it is below 6.

COc1c(Cc2ccc(F)cc2)cc(-c2ccc(F)cc2)cc1C(=O)N[C@H]1CC[C@H](C)CC1 : FALSE
CCCCc1cc(-c2ccccc2)cc(C(=O)N[C@H]2CC[C@@H](C)CC2)c1OC : TRUE
COc1c(Cc2ccc(F)cc2)cc(-c2ccccc2)cc1C(=O)N[C@H]1CC[C@H](C)CC1 : FALSE
CCCCc1cc(-c2ccc(F)cc2)cc(C(=O)NC2CCCCCC2)c1OC : FALSE
COc1c(Cc2ccccc2)cc(-c2ccccc2)cc1C(=O)N[C@H]1CC[C@H](C)CC1 : FALSE
C=CCc1ccc(O)c(-c2ccc(OCCCC)c(CC=C)c2)c1 : TRUE

Tell me whether pKi is at least 6 here: CCCCc1cc(-c2ccc(F)cc2)cc(C(=O)N[C@H]2CC[C@H](C)CC2)c1OC FALSE

CCCCc1cc(-c2ccc(F)cc2)cc(C(=O)N[C@H]2CC[C@@H](C)CC2)c1OC , same question. FALSE

---

Recorded log10(Ki) for the following molecules
molecular target: Cannabinoid receptor 2 (Homo sapiens, UniProt P34972)
Sequence (P34972 whole entry): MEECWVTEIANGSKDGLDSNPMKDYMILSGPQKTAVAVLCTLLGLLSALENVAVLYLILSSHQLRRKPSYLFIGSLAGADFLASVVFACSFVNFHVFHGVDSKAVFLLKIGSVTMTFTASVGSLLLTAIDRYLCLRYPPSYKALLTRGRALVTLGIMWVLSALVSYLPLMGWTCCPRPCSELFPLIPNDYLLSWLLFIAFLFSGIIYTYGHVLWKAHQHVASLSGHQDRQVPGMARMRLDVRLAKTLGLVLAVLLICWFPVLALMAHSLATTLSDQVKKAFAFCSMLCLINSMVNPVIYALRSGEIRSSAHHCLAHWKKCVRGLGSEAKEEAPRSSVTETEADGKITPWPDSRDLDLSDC
Values are log10 of Ki in µM.

Example results:
CCCCc1cc(-c2ccccc2)cc(C(=O)NC2CCCCCC2)c1OC : -0.45
CCCCc1cc(-c2ccccc2)cc(C(=O)N[C@H]2CC[C@@H](C)CC2)c1OC : 0.10
COc1c(Cc2ccc(F)cc2)cc(-c2ccc(F)cc2)cc1C(=O)N[C@H]1CC[C@H](C)CC1 : 0.04
CCCCc1cc(-c2ccc(F)cc2)cc(C(=O)N[C@H]2CC[C@@H](C)CC2)c1OC : 0.15
COc1c(Cc2ccc(F)cc2)cc(-c2ccccc2)cc1C(=O)N[C@H]1CC[C@@H](C)CC1 : 0.05
CCCCc1cc(-c2ccc(OC)cc2)cc(C(=O)NC2CCCCCC2)c1OC : -0.60

Now let's try a different one.
Item CCCCc1cc(-c2ccc(F)cc2)cc(C(=O)N[C@H]2CC[C@H](C)CC2)c1OC has what recorded log10(Ki)? 0.25

---

system: CHO; test: Selectivity index, ratio of Ki for human CB1 receptor expressed in CHO cell membranes to Ki for human CB2 receptor expressed in CHO cell membranes; type: cell-based
For each record, check the reported Selectivity Index: if it is below 2 write T, else write F.

Below are worked cases with known answers.
COc1ccc(-c2cc(C)c(OC)c(C(=O)NC3CCCCCC3)c2)cc1 : F
CCCCc1cc(-c2ccc(F)cc2)cc(C(=O)N[C@H]2CC[C@@H](C)CC2)c1OC : T
COc1c(Cc2ccc(F)cc2)cc(-c2ccc(F)cc2)cc1C(=O)NC1CCCCCC1 : F
COc1c(Cc2ccc(F)cc2)cc(-c2ccc(F)cc2)cc1C(=O)N[C@H]1CC[C@@H](C)CC1 : F

Determine if COc1c(Cc2ccc(F)cc2)cc(-c2ccc(F)cc2)cc1C(=O)N[C@H]1CC[C@H](C)CC1 shows Selectivity Index strictly lower than 2. T

Another molecule to check: CCCCc1cc(-c2ccc(F)cc2)cc(C(=O)NC2CCCCCC2)c1OC F

Do the same for CCCCc1cc(-c2ccc(F)cc2)cc(C(=O)N[C@H]2CC[C@H](C)CC2)c1OC please F

Similarly, COc1c(Cc2ccc(F)cc2)cc(-c2ccccc2)cc1C(=O)N[C@H]1CC[C@@H](C)CC1 ? T

Check COc1ccc(-c2cc(Cc3ccc(F)cc3)c(OC)c(C(=O)N[C@H]3CC[C@H](C)CC3)c2)cc1 too. T

---

biological target: Cannabinoid receptor 1 (Homo sapiens, UniProt P21554)
Lab note: cut-off is 1 µM. Strictly less in Ki is true. Exactly 1 µM or more is false.

COc1ccc(-c2cc(Cc3ccc(F)cc3)c(OC)c(C(=O)N[C@H]3CC[C@H](C)CC3)c2)cc1 : false
COc1c(Cc2ccc(F)cc2)cc(-c2ccccc2)cc1C(=O)NC1CCCCCC1 : true

For COc1c(Cc2ccc(F)cc2)cc(-c2ccccc2)cc1C(=O)N[C@H]1CC[C@@H](C)CC1 , is the recorded Ki below the cut-off of 1 µM? true

Same for COc1c(Cc2ccc(F)cc2)cc(-c2ccc(F)cc2)cc1C(=O)NC1CCCCCC1 false

---

Lab note: pKi readings collected with Cannabinoid receptor 2 (Homo sapiens, UniProt P34972) for the following compounds.
Worth noting: pKi values are minus log10 of concentrations stated in mol/L.

So what's the measured pKi for this one? COc1c(Cc2ccc(F)cc2)cc(-c2ccc(F)cc2)cc1C(=O)N[C@H]1CC[C@@H](C)CC1 6.47

Now the same for CCCCc1cc(-c2ccc(F)cc2)cc(C(=O)NC2CCCCCC2)c1OC 6.78

Entry COc1c(Cc2ccccc2)cc(-c2ccccc2)cc1C(=O)N[C@H]1CC[C@@H](C)CC1 please 5.57

Entry COc1ccc(-c2cc(Cc3ccc(F)cc3)c(OC)c(C(=O)N[C@H]3CC[C@H](C)CC3)c2)cc1 please 6.09

And then COc1c(Cc2ccc(F)cc2)cc(-c2ccc(F)cc2)cc1C(=O)NC1CCCCCC1 , what is it? 6.58

Now give it for C=CCc1ccc(OCCCC)c(-c2ccc(OCCCC)c(CC=C)c2)c1 too. 5.75

How about this compound: COc1c(Cc2ccccc2)cc(-c2ccccc2)cc1C(=O)N[C@H]1CC[C@H](C)CC1 5.32

---

target: Cannabinoid receptor 1 (Homo sapiens)
// assign Met if Ki falls strictly below 2000 nM, else Not met (ties count as Not met)

COc1c(Cc2ccc(F)cc2)cc(-c2ccc(F)cc2)cc1C(=O)N[C@H]1CC[C@@H](C)CC1 : Met
COc1c(C)cc(-c2ccccc2)cc1C(=O)NC1CCCCCC1 : Met
CCCCc1cc(-c2ccccc2)cc(C(=O)N[C@H]2CC[C@H](C)CC2)c1OC : Not met
COc1ccc(-c2cc(C)c(OC)c(C(=O)NC3CCCCCC3)c2)cc1 : Not met
COc1ccc(-c2cc(Cc3ccc(F)cc3)c(OC)c(C(=O)N[C@H]3CC[C@@H](C)CC3)c2)cc1 : Met

Just wondering, is Ki of CCCCc1cc(-c2ccccc2)cc(C(=O)NC2CCCCCC2)c1OC below 2000 nM? Met

// next record COc1c(Cc2ccccc2)cc(-c2ccccc2)cc1C(=O)NC1CCCCCC1 Met

// repeat for COc1ccc(-c2cc(Cc3ccc(F)cc3)c(OC)c(C(=O)NC3CCCCCC3)c2)cc1 and report Not met

---

target: Cannabinoid receptor 2 (Homo sapiens, UniProt P34972)
Some compounds, each annotated with its measured Ki.
Give just the numeric value; nM need not be written.

Recorded Ki, per entry:
COc1c(Cc2ccccc2)cc(-c2ccccc2)cc1C(=O)NC1CCCCCC1 : 594
COc1ccc(-c2cc(C)c(OC)c(C(=O)NC3CCCCCC3)c2)cc1 : 2740
COc1c(C)cc(-c2ccccc2)cc1C(=O)NC1CCCCCC1 : 148
COc1ccc(-c2cc(Cc3ccc(F)cc3)c(OC)c(C(=O)N[C@H]3CC[C@@H](C)CC3)c2)cc1 : 196
C=CCc1ccc(O)c(-c2ccc(OCCCC)c(CC=C)c2)c1 : 103
COc1c(Cc2ccc(F)cc2)cc(-c2ccccc2)cc1C(=O)NC1CCCCCC1 : 84.1
CCCCc1cc(-c2ccccc2)cc(C(=O)N[C@H]2CC[C@H](C)CC2)c1OC : 2390

Next:
Quick check: Ki on Cannabinoid receptor 2 (Homo sapiens, UniProt P34972), item COc1c(Cc2ccc(F)cc2)cc(-c2ccccc2)cc1C(=O)N[C@H]1CC[C@H](C)CC1 ? 2620

Where these numbers come from: ChEMBL document CHEMBL3797038
